Listing of recorded Kd by entry.
# study_target: T1, recombinant extracellular domain (ECD) of human TF, amino acid 1-219 of the mature chain, C-terminal His6-tag (human, UniProt P13726 33-251)
# T1 construct: expressed in a mammalian system; used for ELISA and Biacore; biotinylated by NHS-ester for the Fab ELISA; also called His6-TF-ECD1-219; HumanTF1-219
# method_notes: Biacore
# value in nM; strip the unit string

The examples below pair each entry with its known result.
[[record]]
binder = "M1649 (antibody, V domains shown, complete MAb; FR4 is its own entry; also called H171/L335) VH: EVQLVQSGAEVKKPGESLRISCKGSGYTFAPYWIEWVRQMPGKGLEWMGDILPGTGFTTYSPSFQGHVTISADKSISTAYLQWSSLKASDTAMYYCARSGYYGNSGFAYWGQGTLVTVSS VL: DIVMTQTPLSLPVTPGEPASISCKSSQSLLFSANQRNYLTWYLQKPGQSPQLLIYWASTRDSGVPDRFSGSGSGTDFTLKISRVEAEDVGVYYCQNDDTYPLTFGQGTKLEIK"
unit_symbol = "nM"
measured_value = 0.17

[[record]]
binder = "M46 (antibody, V domains shown, complete MAb; FR4 is its own entry; also called H20/L4) VH: QVQLVQSGAEVKKPGASVKVSCKASGYTFITYWIEWVRQAPGQGLEWMGDILPGSGSTNYNENFKGRVTMTTDTSTSTAYMELRSLRSDDTAVYYCARSGYYGNSGFAYWGQGTLVTVSS VL: DIVMTQSPLSLPVTPGEPASISCKSSQSLLSSGNQKNYLTWYLQKPGQSPQLLIYWASTRESGVPDRFSGSGSGTDFTLKISRVEAEDVGVYYCQNDYTYPLTFGQGTKLEIK"
unit_symbol = "nM"
measured_value = 0.49


With those in mind, consider the next binder.
Q. Sample M1596 (antibody, V domains shown, complete MAb; FR4 is its own entry; also called H185/L3) VH: EVQLVQSGAEVKKPGESLRISCKGSGYTFTPYWIEWVRQMPGKGLEWMGDILPGSGHTTYSPSFQGHVTISADKSISTAYLQWSSLKASDTAMYYCARSGYYGNSGFAYWGQGTLVTVSS VL: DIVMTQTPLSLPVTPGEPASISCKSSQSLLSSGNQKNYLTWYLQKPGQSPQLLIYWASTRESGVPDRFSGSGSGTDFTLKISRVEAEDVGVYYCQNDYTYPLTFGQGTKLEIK — what was its Kd?
A. 0.33
